Reference for the values: ChEMBL document CHEMBL1133893

# System Under Test: Prostaglandin E2 receptor EP4 subtype (Mus musculus)
# Sequence (P32240 whole entry): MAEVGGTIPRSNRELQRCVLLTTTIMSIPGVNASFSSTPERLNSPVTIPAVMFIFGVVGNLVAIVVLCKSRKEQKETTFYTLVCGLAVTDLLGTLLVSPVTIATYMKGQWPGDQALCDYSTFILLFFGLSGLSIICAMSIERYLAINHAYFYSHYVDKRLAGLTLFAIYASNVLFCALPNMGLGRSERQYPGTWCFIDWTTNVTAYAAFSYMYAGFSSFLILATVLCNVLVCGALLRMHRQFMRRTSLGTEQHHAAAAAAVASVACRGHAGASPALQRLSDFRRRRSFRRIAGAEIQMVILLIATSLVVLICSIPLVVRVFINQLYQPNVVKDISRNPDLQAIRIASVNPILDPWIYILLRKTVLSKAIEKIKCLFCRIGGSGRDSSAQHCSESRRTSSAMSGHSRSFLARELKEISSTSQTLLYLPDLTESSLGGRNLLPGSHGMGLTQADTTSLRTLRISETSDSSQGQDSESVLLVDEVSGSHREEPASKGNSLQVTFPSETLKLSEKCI
# Experimental Details: Evaluated for its competitive binding affinity towards mouse Prostanoid EP4 receptor in CHO cells expressing prostanoid receptor
Outcome Measure: pKi
// pKi here means minus log10 of the molar concentration (mol/L)

• Cc1ccc(C[C@H](O)/C=C/[C@H]2[C@H](O)CC(=O)[C@@H]2SCCCSCC(=O)O)cc1 = 8.14

Need pKi, item `COc1ccc(C[C@H](O)/C=C/[C@H]2[C@H](O)CC(=O)[C@@H]2SCCCSCC(=O)O)cc1`
8.15

Need pKi, item `CCCCC[C@H](O)/C=C/[C@H]1[C@H](O)CC(=O)[C@@H]1SCCCSCC(=O)O`
9.15

Need pKi, item `CCCOCc1cccc(C[C@H](O)/C=C/[C@H]2[C@H](O)CC(=O)[C@@H]2SCCCSCC(=O)O)c1`
8.28
